Every entry's value here was drawn from ChEMBL document CHEMBL1139192.

Biological target: Inhibitor of nuclear factor kappa-B kinase subunit beta (Homo sapiens)
Test: Residual activity of human IKK-beta at 1 uM relative to control
measurement-name: residual activity (%)
Report only the number, with the unit % understood.

CN(C)c1nc2ccc1CCCn1cc(c3ccccc31)C1=C(C(=O)NC1=O)c1cn(c3ccccc13)CC2 : 128
O=C1NC(=O)C2=C1c1cn(c3ccccc13)CCCc1ccc(c(N3CCCC3)n1)CCCn1cc2c2ccccc21 : 130
CN(C)c1cc2cc(n1)CCCn1cc(c3ccccc31)C1=C(C(=O)NC1=O)c1cn(c3ccccc13)CCC2 : 124

Lab note: next compound to report on.
Find the recorded residual activity belonging to O=C1NC(=O)C2=C1c1cn(c3ccccc13)CCCc1cc(nc(N3CCCC3)c1)CCCn1cc2c2ccccc21 and report it.
125
